Data origin, for the record: the supplement of paper PMC5908809

Tested on: normal primary NK cells, pool 1 (3 donors), resting (IL-2 0 ng/mL);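 further: normalised to DMSO-only wells as negative and benzethonium chloride as positive control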
Assay: percent inhibition of viability; higher = more inhibition
Conditions: 72 h; 10 nM
Quick rule for you: percent inhibition of viability under -20% gets yes (1), anything else gets no (0).

Some entries whose results are on file:
N#Cc1ccc(C(c2ccc(C#N)cc2)n2cncn2)cc1 [Letrozole] (max concentration tested 10000 nM) = no (0)
O=C(O)CCCCC(CCSCc1ccccc1)SCc1ccccc1 (stereo unspecified) [CPI-613] (max concentration tested 10000 nM) = no (0)
Cc1cc(C)c(/C=C2\C(=O)Nc3ccccc32)[nH]1 [Semaxanib] (max concentration tested 10000 nM) = yes (1)
COc1cccc2c1C(=O)c1c(O)c3c(c(O)c1C2=O)C[C@@](O)(C(=O)CO)C[C@@H]3O[C@H]1C[C@H](N)[C@H](O)[C@H](C)O1 [Doxorubicin] (max concentration tested 1000 nM) = no (0)

API: query returns whether the molecule falls strictly under -20% in percent inhibition of viability. Query: CC[C@@H]1C(=O)N(C)c2cnc(Nc3ccc(C(=O)NC4CCN(C)CC4)cc3OC)nc2N1C1CCCC1 [BI 2536] (max concentration tested 1000 nM)
no (0)
